# STUDY TARGET: R232-STING (Homo sapiens, UniProt Q86WV6, H232R)
# Sequence (Q86WV6 155-341 H232R): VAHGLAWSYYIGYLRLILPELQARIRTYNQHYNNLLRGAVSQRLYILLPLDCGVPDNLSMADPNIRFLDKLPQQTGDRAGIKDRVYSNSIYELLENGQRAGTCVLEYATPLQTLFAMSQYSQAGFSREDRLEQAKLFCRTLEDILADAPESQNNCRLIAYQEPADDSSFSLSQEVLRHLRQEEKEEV
# PROCEDURE SUMMARY: biochemical
READOUT KIND: Ki

- COMPOUND: "CCn1nc(C)c(F)c1-c1n[nH]c(-c2cc(C(N)=O)cc3c2cnn3CCCNC)n1"
  Ki: "> 1890 nM"

Report Ki for every entry below.
1. CCc1nc(C)n(C)c1-c1n[nH]c(-c2cc(C(N)=O)cc3c2cnn3C)n1
2. CCn1nc(C)cc1-c1nnc(-c2c(C(F)(F)F)c(C(N)=O)cc3c2cnn3C)[nH]1
3. CCn1nc(C)cc1-c1nnc(-c2cc(C(N)=O)cc3c2cnn3C(C)CN2CCCCC2)[nH]1 (stereo not shown)

Return:
1: > 990 nM; 2: > 900 nM; 3: > 990 nM
